Source listed as PubChem BioAssay AID1963449.

Tested on: 596521-263-R-J1-PDC complex spheroid growth
Assay remarks: Anticancer human tumor 596521-263-R-J1-PDC patient-derived soft tissue sarcoma cell line growth inhibition [Asc]
Condition info: second compound 0.0949 µM; first compound 1 µM; active compounds read low
Experimental readout: viability, T/C

Some entries whose results are on file:
Molecule | Target entity | Result
CNC(C)C(=O)NC1CN(S(=O)(=O)c2cccc(S(=O)(=O)N3CCC4CCC(C(=O)NC(c5ccccc5)c5ccccc5)N4C(=O)C(NC(=O)C(C)NC)C3)c2)CCC2CCC(C(=O)NC(c3ccccc3)c3ccccc3)N2C1=O (centres undefined) + CCN1C(C(=O)NC23CCC(C(=O)O)(CC2)CC3)C(c2cccc(Cl)c2F)C2(C(=O)Nc3cc(Cl)ccc32)C12CCCCC2 | 596521-263-R-J1-PDC complex spheroid growth | 89.8%
C=CC(=O)N1CCN(c2nc(=O)n(-c3c(C)ccnc3C(C)C)c3nc(-c4c(O)cccc4F)c(F)cc23)C(C)C1 (centres undefined) + CCN1C(C(=O)NC23CCC(C(=O)O)(CC2)CC3)C(c2cccc(Cl)c2F)C2(C(=O)Nc3cc(Cl)ccc32)C12CCCCC2 | 596521-263-R-J1-PDC complex spheroid growth | 108%

Value sought for every listed molecule: viability, T/C.
1. O=C(c1cc(Cc2n[nH]c(=O)c3ccccc23)ccc1F)N1CCN(C(=O)C2CC2)CC1 + CCN1C(C(=O)NC23CCC(C(=O)O)(CC2)CC3)C(c2cccc(Cl)c2F)C2(C(=O)Nc3cc(Cl)ccc32)C12CCCCC2
2. CCN1CCN(Cc2ccc(Nc3ncc(F)c(-c4cc(F)c5nc(C)n(C(C)C)c5c4)n3)nc2)CC1 + CCN1C(C(=O)NC23CCC(C(=O)O)(CC2)CC3)C(c2cccc(Cl)c2F)C2(C(=O)Nc3cc(Cl)ccc32)C12CCCCC2

A)
1. 104%
2. 86.7%

---

System: 596521-263-R-J1-PDC complex spheroid growth
Assay remarks: Anticancer human tumor 596521-263-R-J1-PDC cell line growth inhibition [Asc];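 also: spheroids exposed to compounds for 7 days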
Condition info: second compound 0.00949 µM; first compound 0.0316 µM; active compounds read low
Consider the following compounds; for each one, report its viability, T/C.
Numbers only, in %.

Some entries whose results are on file:
Compound | viability, T/C [%]
COc1c(OCCCN2CCOCC2)ccc2c3n(c(=NC(=O)c4cnc(N)nc4)nc12)CCN3 + CCN1C(C(=O)NC23CCC(C(=O)O)(CC2)CC3)C(c2cccc(Cl)c2F)C2(C(=O)Nc3cc(Cl)ccc32)C12CCCCC2 | 70.4
CCN1CCN(Cc2ccc(Nc3ncc(F)c(-c4cc(F)c5nc(C)n(C(C)C)c5c4)n3)nc2)CC1 + CCN1C(C(=O)NC23CCC(C(=O)O)(CC2)CC3)C(c2cccc(Cl)c2F)C2(C(=O)Nc3cc(Cl)ccc32)C12CCCCC2 | 82.5
C#Cc1c(F)ccc2cc(O)cc(-c3ncc4c(N5CC6CCC(C5)N6)nc(OCC56CCCN5CC(F)C6)nc4c3F)c12 (centres undefined) + CCN1C(C(=O)NC23CCC(C(=O)O)(CC2)CC3)C(c2cccc(Cl)c2F)C2(C(=O)Nc3cc(Cl)ccc32)C12CCCCC2 | 90.9

Here is the next item to consider.
Sure, the documented viability, T/C for C=CC(=O)N1CCN(c2nc(=O)n(-c3c(C)ccnc3C(C)C)c3nc(-c4c(O)cccc4F)c(F)cc23)C(C)C1 (centres undefined) + CCN1C(C(=O)NC23CCC(C(=O)O)(CC2)CC3)C(c2cccc(Cl)c2F)C2(C(=O)Nc3cc(Cl)ccc32)C12CCCCC2 is 102
